Hello, the source for this data is ChEMBL document CHEMBL1909046, in case you need it.

molecular target: D(3) dopamine receptor (Homo sapiens); assay: DRUGMATRIX: Dopamine D3 radioligand binding (ligand: [3H] Spiperone); type: cell membranes, CHO, Membrane; details: read-out: Ki
Sequence (P35462 whole entry): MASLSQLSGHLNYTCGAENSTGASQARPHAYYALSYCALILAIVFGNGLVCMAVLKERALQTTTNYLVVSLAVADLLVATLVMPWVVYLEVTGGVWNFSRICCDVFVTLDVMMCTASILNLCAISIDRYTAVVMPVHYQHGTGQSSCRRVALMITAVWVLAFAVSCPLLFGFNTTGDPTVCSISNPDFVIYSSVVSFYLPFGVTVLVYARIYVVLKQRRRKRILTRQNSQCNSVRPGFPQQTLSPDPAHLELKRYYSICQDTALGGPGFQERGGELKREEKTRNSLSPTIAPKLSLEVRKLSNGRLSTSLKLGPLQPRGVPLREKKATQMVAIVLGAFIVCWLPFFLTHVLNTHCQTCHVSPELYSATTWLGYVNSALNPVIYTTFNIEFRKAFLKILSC
Note to self: use true only for Ki readings below 200 nM; a reading exactly at 200 nM still gets false.

Solved entries (count: 6):
Lab note: Ki threshold 200 nM. Does this compound come in strictly under it? C[C@@H](CO)NC(=O)[C@@H]1C=C2c3cccc4[nH]cc(c34)C[C@H]2N(C)C1 [ERGONOVINE]
true

Lab note: Ki threshold 200 nM. Does this compound come in strictly under it? Fc1ccc(C(c2ccc(F)cc2)N2CCN(C/C=C/c3ccccc3)CC2)cc1 [FLUNARIZINE]
true

Lab note: Ki threshold 200 nM. Does this compound come in strictly under it? Cc1c(C)c2c(c(C)c1O)CCC(C)(CN1CCN(c3cc(N4CCCC4)nc(N4CCCC4)n3)CC1)O2 (configuration not stated)
false

Lab note: Ki threshold 200 nM. Does this compound come in strictly under it? CO[C@@H]1[C@@H](OC)[C@H](C)[C@@](O)(CC(=O)O)O[C@H]1[C@H](C)[C@H]1O[C@@]2(CC[C@@](C)([C@H]3CC[C@@](C)([C@@H]4O[C@@H]([C@H]5O[C@](C)(O)[C@H](C)C[C@@H]5C)C[C@@H]4O[C@@H]4C[C@H](OC)[C@@H](OC)[C@H](C)O4)O3)O2)C[C@H](O)[C@H]1C [MADURAMICIN ACID]
true

Lab note: Ki threshold 200 nM. Does this compound come in strictly under it? CCN(CC)CCNC(=O)c1cc(S(C)(=O)=O)ccc1OC [TIAPRIDE]
false

Lab note: Ki threshold 200 nM. Does this compound come in strictly under it? OC(CCCN1CCCCC1)(c1ccccc1)c1ccccc1 [DIPHENIDOL]
false

From here, focus on the item given below.
Lab note: Ki threshold 200 nM. Does this compound come in strictly under it? COc1cc(N)c(Cl)cc1C(=O)NC1CCN(CCCOc2ccc(F)cc2)CC1OC (configuration not stated) [CISAPRIDE]
true

----------
target: Tyrosine-protein kinase Fyn (Homo sapiens, UniProt P06241); experiment: biochemical; type: cell-based, Insect cells; conditions: insect cells;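 further: enzymatic inhibition of Fyn kinase activity measured with Poly(Glu:Tyr) as the phosphorylation substrate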; further: in other assays of this panel Not Active means under 50% inhibition at 10 µM
Sequence (P06241 whole entry): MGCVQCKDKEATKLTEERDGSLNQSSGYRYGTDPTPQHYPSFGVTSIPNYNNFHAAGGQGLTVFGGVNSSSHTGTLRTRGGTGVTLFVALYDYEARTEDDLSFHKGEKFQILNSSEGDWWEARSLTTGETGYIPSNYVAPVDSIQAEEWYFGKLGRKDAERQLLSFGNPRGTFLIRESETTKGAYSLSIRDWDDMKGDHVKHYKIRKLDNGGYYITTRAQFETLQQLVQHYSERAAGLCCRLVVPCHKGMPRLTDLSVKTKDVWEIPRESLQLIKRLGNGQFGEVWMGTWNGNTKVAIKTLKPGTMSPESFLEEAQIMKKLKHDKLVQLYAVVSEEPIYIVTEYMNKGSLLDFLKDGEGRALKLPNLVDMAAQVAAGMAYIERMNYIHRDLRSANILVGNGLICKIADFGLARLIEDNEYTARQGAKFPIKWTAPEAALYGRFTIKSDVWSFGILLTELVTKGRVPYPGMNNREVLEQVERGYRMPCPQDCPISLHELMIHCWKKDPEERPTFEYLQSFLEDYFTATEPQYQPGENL
Measure name: IC50

Before answering, review these 10 worked examples.
IC50 recorded for this molecule, CN1[C@@H]2CC[C@H]1C[C@@H](OC(=O)C(CO)c1ccccc1)C2 (stereo partly drawn) , is Not Active

IC50 recorded for this molecule, O=C(O)c1cn(-c2ccc(F)cc2)c2cc(N3CCNCC3)c(F)cc2c1=O , is Not Active

IC50 recorded for this molecule, Clc1ccccc1CN1CCc2sccc2C1 , is Not Active

IC50 recorded for this molecule, CN(C)CCOC(c1ccccc1)c1ccccc1 [DIPHENHYDRAMINE] , is Not Active

IC50 recorded for this molecule, CC[C@H]1CN2CCc3cc(OC)c(OC)cc3[C@@H]2C[C@@H]1C[C@H]1NCCc2cc(OC)c(OC)cc21 , is Not Active

IC50 recorded for this molecule, CCn1cc(C(=O)O)c(=O)c2cnc(N3CCCC3)nc21 , is Not Active

IC50 recorded for this molecule, COc1ccc(CCN(C)CCCC(C#N)(c2ccc(OC)c(OC)c2)C(C)C)cc1OC (stereo not drawn) , is Not Active

IC50 recorded for this molecule, O=C1CN=C(c2ccccc2Cl)c2cc([N+](=O)[O-])ccc2N1 , is Not Active

IC50 recorded for this molecule, CN(C)[C@@H]1C(O)=C(C(N)=O)C(=O)[C@@]2(O)C(O)=C3C(=O)c4c(O)ccc(Cl)c4[C@@](C)(O)[C@H]3C[C@@H]12 , is Not Active

IC50 recorded for this molecule, CC(C)NCC(O)c1ccc(O)c(O)c1 (stereo not drawn) , is Not Active

More entries:
IC50 recorded for this molecule, COC(=O)Nc1nc2ccc([S+]([O-])c3ccccc3)cc2[nH]1 (stereo not drawn) , is Not Active

IC50 recorded for this molecule, CC(=O)[C@@]1(O)CC[C@H]2[C@@H]3CCC4=CC(=O)CC[C@]4(C)[C@H]3CC[C@@]21C [HYDROXYPROGESTERONE] , is Not Active

IC50 recorded for this molecule, C[C@@H]1C[C@H]2[C@@H]3CCC4=CC(=O)C=C[C@]4(C)[C@@]3(F)[C@@H](O)C[C@]2(C)[C@@]1(O)C(=O)CO , is Not Active

IC50 recorded for this molecule, CC[C@@H](C(=O)[C@@H](C)[C@@H](O)[C@H](C)[C@@H]1O[C@@H]([C@@H](CC)C(=O)O)CC[C@@H]1C)[C@H]1O[C@]2(C=C[C@@H](O)[C@]3(CC[C@@](C)([C@H]4CC[C@](O)(CC)[C@H](C)O4)O3)O2)[C@H](C)C[C@@H]1C , is Not Active

IC50 recorded for this molecule, CCN(CC)CC(=O)Nc1c(C)cccc1C , is Not Active

IC50 recorded for this molecule, Cc1cccc(C)c1OCC(C)N (stereo not drawn) , is Not Active

IC50 recorded for this molecule, N#Cc1ccc(C(c2ccc(C#N)cc2)n2cncn2)cc1 , is Not Active

----------
IC50: recorded values
experiment: DRUGMATRIX: Sigma2 radioligand binding (ligand: [3H] Ifenprodil); type: cell membranes, Rattus norvegicus, Wistar, Brain, Membrane; conditions: Not Active = under 50% inhibition at 10 µM; read-out: IC50
Reply numerically in nM, unit not repeated.

IC50 recorded for this molecule, Clc1ccccc1CN1CCc2sccc2C1 , is 3260

IC50 recorded for this molecule, COc1ccc(CCN(C)CCCC(C#N)(c2ccc(OC)c(OC)c2)C(C)C)cc1OC (stereo unspecified) , is 2820

IC50 recorded for this molecule, COc1cc(N)c(Cl)cc1C(=O)NC1CCN(CCCOc2ccc(F)cc2)CC1OC (stereo unspecified) [CISAPRIDE] , is 177

IC50 recorded for this molecule, CN(C/C=C/C#CC(C)(C)C)Cc1cccc2ccccc12 , is 35.4

IC50 recorded for this molecule, COc1ccc2cc3[n+](cc2c1OC)CCc1cc2c(cc1-3)OCO2.[Cl-] [BERBERINE CHLORIDE] , is 95

More entries:
IC50 recorded for this molecule, CN(C)CC[C@@H](c1ccc(Cl)cc1)c1ccccn1 , is 19100

----------
test: DRUGMATRIX: Tumor Necrosis Factor (TNF), Non-Selective radioligand binding (ligand: [125I] TNF-alpha); type: cell membranes, Membrane; settings: u-937; Not Active = under 50% inhibition at 10 µM
Measure name: IC50

Before answering, review these 5 worked examples.
IC50 recorded for this substance, MANGANESE CHLORIDE ANHYDROUS , is Not Active

IC50 recorded for this substance, GENTAMICIN , is Not Active

IC50 recorded for this substance, AURANOFIN , is Not Active

IC50 recorded for this substance, GADOPENTETATE DIMEGLUMINE , is Not Active

IC50 recorded for this substance, GRAMICIDIN , is Not Active

More entries:
IC50 recorded for this substance, NYSTATIN , is Not Active

IC50 recorded for this substance, SODIUM ORTHOVANAD , is Not Active

----------
target: Calcitonin receptor (Homo sapiens); format: cell membranes, Membrane; details: t47d; further: in other assays of this panel Not Active means under 50% inhibition at 10 µM
Sequence (P30988 whole entry): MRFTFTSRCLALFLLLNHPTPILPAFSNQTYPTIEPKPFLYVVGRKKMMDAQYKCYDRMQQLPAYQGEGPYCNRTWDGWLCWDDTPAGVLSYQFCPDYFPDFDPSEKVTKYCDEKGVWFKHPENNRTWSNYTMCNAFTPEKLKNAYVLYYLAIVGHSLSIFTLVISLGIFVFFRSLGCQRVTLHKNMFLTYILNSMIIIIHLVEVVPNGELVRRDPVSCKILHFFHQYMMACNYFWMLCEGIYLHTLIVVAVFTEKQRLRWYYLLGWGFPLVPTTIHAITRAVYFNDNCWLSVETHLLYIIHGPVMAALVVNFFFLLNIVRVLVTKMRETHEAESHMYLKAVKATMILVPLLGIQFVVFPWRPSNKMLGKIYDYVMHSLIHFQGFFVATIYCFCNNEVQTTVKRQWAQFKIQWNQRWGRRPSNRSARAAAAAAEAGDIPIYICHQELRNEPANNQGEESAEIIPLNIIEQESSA
Measure name: IC50

Before answering, review these 4 worked examples.
IC50 recorded for this compound, CC(C)NCC(O)c1ccc(NS(C)(=O)=O)cc1 (stereo not given) , is Not Active

IC50 recorded for this compound, CCCCNc1ccc(C(=O)OCCN(C)C)cc1 , is Not Active

IC50 recorded for this compound, C#C[C@]1(OC(C)=O)CC[C@H]2[C@@H]3CCC4=C[C@@H](OC(C)=O)CC[C@@H]4[C@H]3CC[C@@]21C [ETHYNODIOL DIACETATE] , is Not Active

IC50 recorded for this compound, O=C1CN=C(c2ccccc2Cl)c2cc([N+](=O)[O-])ccc2N1 , is Not Active

Kindly consider the entry below.
IC50 recorded for this compound, CN/C(=N\CCSCc1nc[nH]c1C)NC#N , is Not Active

----------
Target: Caspase-1 (Homo sapiens);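 further: Caspase-1 enzyme inhibition assay with a peptide substrate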; further: in other assays of this panel Not Active means under 50% inhibition at 10 µM
Sequence (P29466 whole entry): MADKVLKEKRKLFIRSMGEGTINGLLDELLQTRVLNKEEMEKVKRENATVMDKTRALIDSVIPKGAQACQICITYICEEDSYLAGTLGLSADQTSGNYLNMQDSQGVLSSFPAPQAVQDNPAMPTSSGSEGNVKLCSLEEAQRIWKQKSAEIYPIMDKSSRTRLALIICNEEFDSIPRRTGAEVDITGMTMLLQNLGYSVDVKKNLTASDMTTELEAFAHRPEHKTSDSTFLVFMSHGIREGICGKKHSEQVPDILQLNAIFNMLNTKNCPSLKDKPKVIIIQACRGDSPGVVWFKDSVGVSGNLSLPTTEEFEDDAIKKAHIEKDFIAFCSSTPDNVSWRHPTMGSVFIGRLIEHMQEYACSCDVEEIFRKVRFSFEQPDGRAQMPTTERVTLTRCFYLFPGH
Set-up: species or system Escherichia coli
Measure name: IC50

Before answering, review these 10 worked examples.
IC50 recorded for this compound, COc1c2occc2cc2ccc(=O)oc12 [METHOXSALEN] , is Not Active

IC50 recorded for this compound, CCCNCC(O)COc1ccccc1C(=O)CCc1ccccc1 (centres undefined) [PROPAFENONE] , is Not Active

IC50 recorded for this compound, Clc1ccc(COC(Cn2ccnc2)c2ccc(Cl)cc2Cl)cc1 (centres undefined) [ECONAZOLE] , is Not Active

IC50 recorded for this compound, Cn1c(=O)c2[nH]cnc2n(C)c1=O.Cn1c(=O)c2[nH]cnc2n(C)c1=O.NCCN [AMINOPHYLLINE] , is Not Active

IC50 recorded for this compound, CN1[C@@H]2CC[C@H]1C[C@@H](OC(=O)C(CO)c1ccccc1)C2 (some centres undefined) [ATROPINE] , is Not Active

IC50 recorded for this compound, CN(C)[C@@H]1C(O)=C(C(N)=O)C(=O)[C@@]2(O)C(O)=C3C(=O)c4c(O)ccc(Cl)c4[C@@](C)(O)[C@H]3C[C@@H]12 [CHLORTETRACYCLINE] , is Not Active

IC50 recorded for this compound, CC(C)c1cccc(C(C)C)c1O [PROPOFOL] , is Not Active

IC50 recorded for this compound, O=C(O)c1cn(-c2ccc(F)cc2)c2cc(N3CCNCC3)c(F)cc2c1=O [SARAFLOXACIN] , is Not Active

IC50 recorded for this compound, C[n+]1ccc(-c2cc[n+](C)cc2)cc1.[Cl-].[Cl-] [PARAQUAT DICHLORIDE] , is Not Active

IC50 recorded for this compound, CCN1CCC[C@H]1CNC(=O)c1cc(S(N)(=O)=O)ccc1OC [LEVOSULPIRIDE] , is Not Active

More entries:
IC50 recorded for this compound, CC(C)NCC(O)c1ccc(O)c(O)c1 (centres undefined) [ISOPROTERENOL] , is Not Active

IC50 recorded for this compound, C[n+]1ccccc1/C=N/O.[Cl-] [PRALIDOXIME CHLORIDE] , is Not Active

IC50 recorded for this compound, O=C(O)CCNC(=O)c1ccccc1 [BETAMIPRON] , is Not Active

IC50 recorded for this compound, O=C/C=C/c1ccccc1 , is Not Active

IC50 recorded for this compound, C[C@@H]1C[C@H]2[C@@H]3CCC4=CC(=O)C=C[C@]4(C)[C@@]3(F)[C@@H](O)C[C@]2(C)[C@H]1C(=O)CO [DESOXIMETASONE] , is Not Active

IC50 recorded for this compound, COc1ccc2cc3[n+](cc2c1OC)CCc1cc2c(cc1-3)OCO2.[Cl-] [BERBERINE CHLORIDE] , is Not Active

IC50 recorded for this compound, Nc1ccn([C@@H]2O[C@H](CO)[C@@H](O)[C@@H]2O)c(=O)n1 [CYTARABINE] , is Not Active

IC50 recorded for this compound, O=C(Nc1ccc(Br)cc1)c1cc(Br)cc(Br)c1O [TRIBROMSALAN] , is Not Active

IC50 recorded for this compound, Nc1cc(N2CCCCC2)nc(N)[n+]1[O-] [MINOXIDIL] , is Not Active

IC50 recorded for this compound, CS(=O)(=O)c1ccc([C@@H](O)[C@@H](CO)NC(=O)C(Cl)Cl)cc1 [THIAMPHENICOL] , is Not Active

IC50 recorded for this compound, CCC1(C)CC(=O)NC1=O (centres undefined) [ETHOSUXIMIDE] , is Not Active

IC50 recorded for this compound, CC(=O)Oc1ccc(C(c2ccc(OC(C)=O)cc2)c2ccccn2)cc1 [BISACODYL] , is Not Active

IC50 recorded for this compound, C[C@@H](CO)NC(=O)[C@@H]1C=C2c3cccc4[nH]cc(c34)C[C@H]2N(C)C1 [ERGONOVINE] , is Not Active

IC50 recorded for this compound, Oc1cccc(O)c1O [PYROGALLOL] , is Not Active

IC50 recorded for this compound, C#CC1(O)CC[C@H]2[C@@H]3CCC4=CC(=O)CC[C@@H]4[C@H]3CC[C@@]21CC (some centres undefined) [NORGESTREL] , is Not Active

IC50 recorded for this compound, CCCN(CCC)S(=O)(=O)c1ccc(C(=O)O)cc1 [PROBENECID] , is Not Active

IC50 recorded for this compound, COC(=O)CCc1ccc(OCC(O)CNC(C)C)cc1 (centres undefined) [ESMOLOL] , is Not Active

IC50 recorded for this compound, CC(C(=O)O)c1cccc(Oc2ccccc2)c1 (centres undefined) [FENOPROFEN] , is Not Active

IC50 recorded for this compound, CCCOc1ccc(C(=O)OCCN(CC)CC)cc1N [PROPARACAINE] , is Not Active

IC50 recorded for this compound, O=c1cnn([C@@H]2O[C@H](CO)[C@@H](O)[C@H]2O)c(=O)[nH]1 [6-AZAURIDINE] , is Not Active
